// data source = patent US20240287172A1

- assayed-system: T1, hiR1-FL-WT-T7 (human, UniProt Q96CC6 1-855)
- T1 construct: on MEF-DKO cells
- T1 sequence: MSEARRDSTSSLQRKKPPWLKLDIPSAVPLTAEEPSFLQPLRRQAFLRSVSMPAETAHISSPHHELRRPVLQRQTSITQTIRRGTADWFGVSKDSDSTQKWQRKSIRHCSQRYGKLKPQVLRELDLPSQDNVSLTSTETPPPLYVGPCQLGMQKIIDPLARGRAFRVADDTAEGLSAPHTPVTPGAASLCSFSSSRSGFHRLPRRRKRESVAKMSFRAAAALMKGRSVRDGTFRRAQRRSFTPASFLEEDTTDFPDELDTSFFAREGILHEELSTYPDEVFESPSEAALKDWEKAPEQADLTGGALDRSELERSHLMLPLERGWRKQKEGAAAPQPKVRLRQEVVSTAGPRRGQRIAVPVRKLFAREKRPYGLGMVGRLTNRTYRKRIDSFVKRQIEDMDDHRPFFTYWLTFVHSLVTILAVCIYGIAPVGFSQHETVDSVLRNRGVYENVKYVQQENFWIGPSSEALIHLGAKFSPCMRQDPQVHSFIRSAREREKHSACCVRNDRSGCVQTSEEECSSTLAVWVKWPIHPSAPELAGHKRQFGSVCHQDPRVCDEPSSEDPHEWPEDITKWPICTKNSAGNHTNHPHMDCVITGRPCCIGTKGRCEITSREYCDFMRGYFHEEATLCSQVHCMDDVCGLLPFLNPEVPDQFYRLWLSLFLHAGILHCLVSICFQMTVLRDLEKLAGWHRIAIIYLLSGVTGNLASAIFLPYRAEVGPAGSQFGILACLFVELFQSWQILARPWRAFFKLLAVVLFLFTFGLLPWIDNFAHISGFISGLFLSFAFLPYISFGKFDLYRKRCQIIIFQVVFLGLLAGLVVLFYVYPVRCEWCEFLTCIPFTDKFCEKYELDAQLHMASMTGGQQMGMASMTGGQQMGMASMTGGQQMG
- assay-comment: FACS, MEF-DKO cells, 3 µg/ml
We begin with a simple list: items and their reported loss of binding vs wild type.

binder | property | measurement
antibody 43 (antibody, V domains shown, mouse IgG, kappa light chain; also called clone #43; purified antibody 43) VH: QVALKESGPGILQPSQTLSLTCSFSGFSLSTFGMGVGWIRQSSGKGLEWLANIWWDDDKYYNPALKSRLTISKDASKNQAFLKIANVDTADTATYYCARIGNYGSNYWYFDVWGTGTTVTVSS VL: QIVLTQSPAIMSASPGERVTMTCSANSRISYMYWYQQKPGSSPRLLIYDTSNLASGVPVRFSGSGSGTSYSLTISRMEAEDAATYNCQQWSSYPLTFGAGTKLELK | loss of binding vs wild type | ≥ 95%

Kindly consider the entry below.
Per the record, antibody 22 (antibody, V domains shown, mouse IgG, kappa light chain; also called clone #22; purified antibody 22) VH: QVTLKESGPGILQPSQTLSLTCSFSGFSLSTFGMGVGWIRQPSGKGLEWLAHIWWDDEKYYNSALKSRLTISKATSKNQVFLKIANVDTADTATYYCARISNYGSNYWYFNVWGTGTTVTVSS VL: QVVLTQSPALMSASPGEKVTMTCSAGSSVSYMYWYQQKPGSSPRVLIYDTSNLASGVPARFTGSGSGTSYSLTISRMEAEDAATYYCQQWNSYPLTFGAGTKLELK has loss of binding vs wild type of ≥ 95%
